Tested on: MCF7
measurement-protocol: Antiproliferative activity against human MCF7 cells assessed as reduction in cell growth
Type: functional, cell-based

compound | IC50
CC(C)N(C(=O)n1nnn(-c2c(F)cccc2F)c1=O)c1ccc(C(=O)O)cc1Oc1ccccc1 | 19 nM
CCCCCCCCCCC[C@@H](C[C@@H]1OC(=O)[C@H]1CCCCCC)OC(=O)[C@H](CC(C)C)NC=O | 250 nM
Cc1sc2ncnc(NC3CCN(Cc4ccccc4)C3)c2c1C (stereo not drawn) | 0.3 nM

---

measurement-protocol: Inhibition of CPT1 (unknown origin)
Set-up: species or system Homo sapiens
pIC50: −log10 of the molar value.
Classification field: YES = pIC50 at or over 7; NO = pIC50 under 7.

molecule | answer-label
CCCCCCOc1cccc(OCCCCNC(=O)N[C@@H](CC(=O)O)CN(C)C)c1 | YES
COc1ccc(CN2CCN(CCCSc3cc(C(C)(C)C)c(O)c(C(C)(C)C)c3)CC2)c(OC)c1OC | NO
COC(=O)c1cc(Cl)c(O)c(S(=O)(=O)Nc2cc(-c3ccccc3)c(F)cc2F)c1 | YES
COc1ccc(CN2CCNCC2)c(OC)c1OC [TRIMETAZIDINE] | NO
